- System: K562
- test_method_notes: Cytotoxicity against human K562 cells […] by MTT assay
- Type: functional, cell-based
// boundary case: IC50 equal to 20 µM maps to no; strictly smaller maps to yes

1. O=C(OCc1ccccc1)c1cc2c([nH]c3ccccc32)c(CCN[C@@H](Cc2ccccc2)C(=O)OCc2ccccc2)n1 | no

Now look at this one.
Hi there! Is IC50 for `NC(=O)C[C@H](NCCc1nc(C(=O)OCc2ccccc2)cc2c1[nH]c1ccccc12)C(=O)OCc1ccccc1` below 20 µM, do you know?
no

###

Property: IC50; scope: individual compounds
- Tested on: K562
- test_method_notes: Cytotoxicity against human K562 cells […] by MTT assay
- Format: functional, cell-based
The response must be a number in µM with no trailing unit.

1. Nc1ccn([C@@H]2O[C@H](CO)[C@@H](O)[C@@H]2O)c(=O)n1 [CYTARABINE] | 33.5
2. CC(C)C[C@H](NCCc1nc(C(=O)OCc2ccccc2)cc2c1[nH]c1ccccc12)C(=O)OCc1ccccc1 | 21.5
3. O=C(OCc1ccccc1)c1cc2c([nH]c3ccccc32)c(CCN[C@@H](Cc2ccc(O)cc2)C(=O)OCc2ccccc2)n1 | 18.9
4. O=C(CNCCc1nc(C(=O)OCc2ccccc2)cc2c1[nH]c1ccccc12)OCc1ccccc1 | 47.1
5. O=C(NCCCC[C@H](NCCc1nc(C(=O)OCc2ccccc2)cc2c1[nH]c1ccccc12)C(=O)OCc1ccccc1)OCc1ccccc1 | 15.4

`O=C(CC[C@H](NCCc1nc(C(=O)OCc2ccccc2)cc2c1[nH]c1ccccc12)C(=O)OCc1ccccc1)OCc1ccccc1` yielded IC50 of 18.5

`C[C@H](NCCc1nc(C(=O)OCc2ccccc2)cc2c1[nH]c1ccccc12)C(=O)OCc1ccccc1` yielded IC50 of 48.2

`O=C(OCc1ccccc1)c1cc2c([nH]c3ccccc32)c(CCN[C@@H](Cc2c[nH]cn2)C(=O)OCc2ccccc2)n1` yielded IC50 of 14.4

`O=C(OCc1ccccc1)c1cc2c([nH]c3ccccc32)c(CCN[C@@H](Cc2c[nH]c3ccccc23)C(=O)OCc2ccccc2)n1` yielded IC50 of 14.9

`O=C(OCc1ccccc1)c1cc2c([nH]c3ccccc32)c(CCN[C@@H](CO)C(=O)OCc2ccccc2)n1` yielded IC50 of 19.7

###

Property: pIC50; scope: individual compounds
- Test system: K562
- test_method_notes: Cytotoxicity against human K562 cells […] by MTT assay
- Assay type: functional, cell-based
To interpret pIC50, take it as minus log10 of a concentration measured in moles per litre.

The following compounds have reported results that may help.
1. O=C(OCc1ccccc1)c1cc2c([nH]c3ccccc32)c(CCN2CCC[C@H]2C(=O)OCc2ccccc2)n1 | 4.70
2. C[C@@H](O)[C@H](NCCc1nc(C(=O)OCc2ccccc2)cc2c1[nH]c1ccccc12)C(=O)OCc1ccccc1 | 4.42
3. CSCC[C@H](NCCc1nc(C(=O)OCc2ccccc2)cc2c1[nH]c1ccccc12)C(=O)OCc1ccccc1 | 4.87

// returns pIC50 for `CC(C)[C@H](NCCc1nc(C(=O)OCc2ccccc2)cc2c1[nH]c1ccccc12)C(=O)OCc1ccccc1` with K562; value = 4.68

###

- System: K562
- test_method_notes: Cytotoxicity against human K562 cells […] by MTT assay
- Assay type: functional, cell-based
pIC50: −log10 of the molar value.
property: pIC50

1) CC[C@H](C)[C@H](NCCc1nc(C(=O)OCc2ccccc2)cc2c1[nH]c1ccccc12)C(=O)OCc1ccccc1 | < 4.00
2) NC(=O)CC[C@H](NCCc1nc(C(=O)OCc2ccccc2)cc2c1[nH]c1ccccc12)C(=O)OCc1ccccc1 | < 4.00

Now turn to the next compound.
// returns pIC50 for `O=C(C[C@H](NCCc1nc(C(=O)OCc2ccccc2)cc2c1[nH]c1ccccc12)C(=O)OCc1ccccc1)OCc1ccccc1` with K562; value = < 4.00

Origin of the recorded values: ChEMBL document CHEMBL1221334
